Notes on pIC50 obtained with CYP26A1 (Homo sapiens (Human), UniProt O43174).
Sequence (O43174 whole entry): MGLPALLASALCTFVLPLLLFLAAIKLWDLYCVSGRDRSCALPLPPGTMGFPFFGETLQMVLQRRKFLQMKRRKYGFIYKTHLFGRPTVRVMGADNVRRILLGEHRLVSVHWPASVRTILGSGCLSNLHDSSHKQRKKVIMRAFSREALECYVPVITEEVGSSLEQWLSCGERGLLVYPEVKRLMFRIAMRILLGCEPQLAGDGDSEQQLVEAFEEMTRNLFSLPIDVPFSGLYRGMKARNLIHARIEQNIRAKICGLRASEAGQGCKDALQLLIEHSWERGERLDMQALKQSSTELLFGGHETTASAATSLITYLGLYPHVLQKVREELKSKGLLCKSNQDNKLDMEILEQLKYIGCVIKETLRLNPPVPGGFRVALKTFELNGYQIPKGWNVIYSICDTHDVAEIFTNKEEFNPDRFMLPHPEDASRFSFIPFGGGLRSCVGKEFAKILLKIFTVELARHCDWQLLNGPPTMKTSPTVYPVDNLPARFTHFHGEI
pIC50: −log10 of the molar value.
MEASURED_ATTRIBUTE: pIC50

// known answers, use as guide
> print(dat)
                            chemical.smiles                        measurement.target  measured.attribute  measured.number
1  CC1(C)CC(C)(C)c2cc(B3Oc4ccc(CC(=O)O)cc4O3)cc(C3CC3)c2O1  CYP26A1 (Homo sapiens (Human), UniProt O43174)               pIC50             4.50
2  CC(C)(C)c1cccc(-c2cc3cc(CC(=O)O)ccc3o2)c1  CYP26A1 (Homo sapiens (Human), UniProt O43174)               pIC50             5.07

1: Cc1ccc(C(C)(C)C)cc1-c1cc2cc(/C=C/C(=O)O)ccc2[nH]1
2: CC(C)(C)c1cccc(C(=O)Cc2ccc(/C=C/C(=O)O)cc2)c1
## Input Out of 1 and 2 , name the one with the higher pIC50. Identify your selection by its label.
## Output 1
(1: 5.02, 2: 4.34)

###

# Tested on: Cyp26a1-luc construct in MCF-7 cells
# EXPERIMENTAL_DETAILS: Retinoid activity assay, Cyp26a1-luc reporter in MCF-7 cells
# Format: cell-based
# CONDITIONS: 1 μM, 24 hours, firefly relative to Renilla luciferase
MEASURED_ATTRIBUTE: Rel. Luciferase Activity (mean)

// known answers, use as guide
> print(dat)
                            chemical.smiles               measured.attribute  result
1  CC1(C)CC(C)(C)c2cc(-c3cc4cc(CC(=O)O)ccc4o3)cc(C3CC3)c2O1  Rel. Luciferase Activity (mean)   .0026
2  CC(C)(C)c1cccc(-c2cc3cc(/C=C/C(=O)O)ccc3[nH]2)c1  Rel. Luciferase Activity (mean)   .0472
3  CC(C)(C)c1cccc(B(O)Oc2ccc(/C=C/C(=O)O)cc2)c1  Rel. Luciferase Activity (mean)   .0384
4  CC(C)(C)c1cccc(-c2cc3cc(CC(=O)O)ccc3o2)c1  Rel. Luciferase Activity (mean)   .0015
5  CC(C)(C)c1cccc(C(=O)Cc2ccc(/C=C/C(=O)O)cc2)c1  Rel. Luciferase Activity (mean)     .01

## Input Which Rel. Luciferase Activity (mean) is reported for this compound? CC1(C)CC(C)(C)c2cc(B3Oc4ccc(CC(=O)O)cc4O3)cc(C3CC3)c2O1
## Output .0343

## Input Which Rel. Luciferase Activity (mean) is reported for this compound? C=CCc1cc(C(=O)Cc2ccc(CC(=O)O)cc2)cc2c1OC(C)(C)CC2(C)C
## Output .0099

## Input Which Rel. Luciferase Activity (mean) is reported for this compound? CC(C)(C)c1cccc(-c2cc3cc(/C=C/C(=O)O)ccc3o2)c1
## Output .0047

## Input Which Rel. Luciferase Activity (mean) is reported for this compound? CC1(C)CC(C)(C)c2cc(C(=O)Cc3ccc(CC(=O)O)cc3)cc(C3CC3)c2O1
## Output .0094

###

# MEASUREMENT_TARGET: UniProt:Q9NR63
# EXPERIMENTAL_DETAILS: Cell-based inhibitor assay ([3H]-RA metabolism), CYP26B1 stably transfected HeLa cells
# CONDITIONS: IC50 relative to ketoconazole
MEASURED_ATTRIBUTE: CYP26B1 Rel. to keto

// known answers, use as guide
> print(dat)
                            chemical.smiles  measured.number
1  CC(C)(C)c1cccc(-c2cc3cc(CC(=O)O)ccc3o2)c1              0.3
2  CC(C)(C)c1cccc(-c2cc3cc(/C=C/C(=O)O)ccc3o2)c1                2
3  CC1(C)CC(C)(C)c2cc(B3Oc4ccc(CC(=O)O)cc4O3)cc(C3CC3)c2O1              9.2
4  CC(C)(C)c1cccc(B(O)Oc2ccc(/C=C/C(=O)O)cc2)c1              5.7

P: CC(C)(C)c1cccc(C(=O)Cc2ccc(/C=C/C(=O)O)cc2)c1
Q: C=CCc1cc(C(=O)Cc2ccc(CC(=O)O)cc2)cc2c1OC(C)(C)CC2(C)C
R: CC(C)(C)c1cccc(-c2cc3cc(/C=C/C(=O)O)ccc3[nH]2)c1
S: Cc1ccc(C(C)(C)C)cc1-c1cc2cc(/C=C/C(=O)O)ccc2[nH]1
## Input Exam item: list the entries in increasing order of CYP26B1 Rel. to keto. Provide the labels, sequenced as the question asks.
## Output R, S, Q, P

###

# System: Cyp26a1-luc construct in MCF-7 cells
# EXPERIMENTAL_DETAILS: Retinoid activity assay, Cyp26a1-luc reporter in MCF-7 cells
# Type: cell-based
# CONDITIONS: 10 μM, 24 hours, firefly relative to Renilla luciferase
In this section, each of the compounds is paired with its reported Rel. Luciferase Activity (mean).

> print(dat)
                            chemical.smiles  result
1  C=CCc1cc(C(=O)Cc2ccc(CC(=O)O)cc2)cc2c1OC(C)(C)CC2(C)C   .0121
2  CC1(C)CC(C)(C)c2cc(B3Oc4ccc(CC(=O)O)cc4O3)cc(C3CC3)c2O1   .0385
3  CC(C)(C)c1cccc(B(O)Oc2ccc(/C=C/C(=O)O)cc2)c1   .0333

## Input Under Cyp26a1-luc construct in MCF-7 cells: Rel. Luciferase Activity (mean) value of CC1(C)CC(C)(C)c2cc(C(=O)Cc3ccc(CC(=O)O)cc3)cc(C3CC3)c2O1 ?
## Output .0144

## Input Under Cyp26a1-luc construct in MCF-7 cells: Rel. Luciferase Activity (mean) value of CC(C)(C)c1cccc(C(=O)Cc2ccc(/C=C/C(=O)O)cc2)c1 ?
## Output .0128

###

Notes on IC50 obtained with CYP26B1 (Homo sapiens (Human), UniProt Q9NR63).
Sequence (Q9NR63 whole entry): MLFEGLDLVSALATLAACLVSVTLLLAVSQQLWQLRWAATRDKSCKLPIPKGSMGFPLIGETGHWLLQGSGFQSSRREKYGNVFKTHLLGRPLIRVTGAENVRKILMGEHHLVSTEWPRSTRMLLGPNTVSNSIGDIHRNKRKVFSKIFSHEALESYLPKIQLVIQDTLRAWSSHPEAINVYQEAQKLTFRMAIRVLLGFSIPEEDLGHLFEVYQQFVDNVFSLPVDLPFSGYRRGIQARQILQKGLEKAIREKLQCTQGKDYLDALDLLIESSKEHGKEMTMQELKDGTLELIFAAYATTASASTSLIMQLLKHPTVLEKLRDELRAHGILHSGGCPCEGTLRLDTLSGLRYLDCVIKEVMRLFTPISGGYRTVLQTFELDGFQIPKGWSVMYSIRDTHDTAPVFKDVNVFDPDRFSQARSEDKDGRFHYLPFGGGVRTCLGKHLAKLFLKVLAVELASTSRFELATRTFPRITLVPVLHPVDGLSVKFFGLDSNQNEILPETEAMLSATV
MEASURED_ATTRIBUTE: IC50 (µM)

I: CC(C)(C)c1cccc(-c2cc3cc(CC(=O)O)ccc3o2)c1 [Compound 032]
II: CC(C)(C)c1cccc(B(O)Oc2ccc(/C=C/C(=O)O)cc2)c1 [Compound 029]
## Input In terms of reported IC50, does I or II have the smaller number? Identify your selection by its label.
## Output I

###

# Test system: Cyp26a1-luc construct in MCF-7 cells
# EXPERIMENTAL_DETAILS: Retinoid activity assay, Cyp26a1-luc reporter in MCF-7 cells
# Type: cell-based
# CONDITIONS: 10 μM, 24 hours, firefly relative to Renilla luciferase
MEASURED_ATTRIBUTE: Rel. Luciferase Activity (mean)

> print(dat)
                            chemical.smiles               measured.attribute  result
1  CC(C)(C)c1cccc(-c2cc3cc(/C=C/C(=O)O)ccc3o2)c1  Rel. Luciferase Activity (mean)   .0034
2  CC(C)(C)c1cccc(-c2cc3cc(/C=C/C(=O)O)ccc3[nH]2)c1  Rel. Luciferase Activity (mean)   .0678
3  CC(C)(C)c1cccc(-c2cc3cc(CC(=O)O)ccc3o2)c1  Rel. Luciferase Activity (mean)   .0004

Okay, now this compound:
## Input Which Rel. Luciferase Activity (mean) is reported for this compound? CC1(C)CC(C)(C)c2cc(-c3cc4cc(CC(=O)O)ccc4o3)cc(C3CC3)c2O1
## Output .0027

Provenance of the data: patent US11358933B2
